pKi: −log10 of the molar value.
pKi, human D3 receptor (Homo sapiens, UniProt P35462): measured values
metric: pKi

O=C(CCC(F)(F)F)N[C@H]1CC[C@H](CCN2CCN(c3nccc4c3OCC4)CC2)CC1 = 7.85
Cc1ccc(C(=O)N[C@H]2CC[C@H](CCN3CCN(c4nccc5c4OCC5)CC3)CC2)cn1 = 7.76
O=C(N[C@H]1CC[C@H](CCN2CCN(c3nccc4c3OCC4)CC2)CC1)c1ccc2ncccc2c1 = 8.03
CC(C)=CC(=O)N[C@H]1CC[C@H](CCN2CCN(c3nccc4c3OCC4)CC2)CC1 = 8.03
CC(=O)N[C@H]1CC[C@H](CCN2CCN(c3nccc4ccsc34)CC2)CC1 = 8.64
CC[C@@H](O)CC(=O)N[C@H]1CC[C@H](CCN2CCN(c3nccc4c3OCC4)CC2)CC1 = 7.70
CO[C@H]1CC[C@H](CC(=O)N[C@H]2CC[C@H](CCN3CCN(c4nccc5c4OCC5)CC3)CC2)CC1 = 7.91
O=C(N[C@H]1CC[C@H](CCN2CCN(c3nccc4c3OCC4)CC2)CC1)c1ccc(N2CCCCC2)cc1 = 7.37
O=C(N[C@H]1CC[C@H](CCN2CCN(c3nccc4c3OCC4)CC2)CC1)c1ccc(F)cc1 = 8.05
O=S(=O)(N[C@H]1CC[C@H](CCN2CCN(c3nccc4c3OCC4)CC2)CC1)c1ccc(F)cc1 = 8.28

I. O=C(CCO)N[C@H]1CC[C@H](CCN2CCN(c3nccc4c3OCC4)CC2)CC1
II. O=C(N[C@H]1CC[C@H](CCN2CCN(c3nccc4c3OCC4)CC2)CC1)C1(O)CC1
Input line: Hey, which is lower on measured pKi, I or II ? Your choice should be expressed through its label.
Output line: II
(II: 7.77, I: 7.98)

1. CCCCC(=O)N[C@H]1CC[C@H](CCN2CCN(c3nccc4c3OCC4)CC2)CC1
2. Cc1cc(C(=O)N[C@H]2CC[C@H](CCN3CCN(c4nccc5c4OCC5)CC3)CC2)on1
Input line: Consider entries 1 and 2 . Which has the numerically lower pKi? Label of pick, please.
Output line: 2
(2: 7.58, 1: 7.98)

a. O=C(N[C@H]1CC[C@H](CCN2CCN(c3nccc4c3OCC4)CC2)CC1)C(O)C(F)(F)F (mixture of isomers)
b. O=C(N[C@H]1CC[C@H](CCN2CCN(c3nccc4c3OCC4)CC2)CC1)C1CCCOC1 (mixture of isomers)
Input line: Compare a and b by numeric pKi and name the larger one. Respond with the label that goes with your answer.
Output line: a

---

metric: melting point (°C)

O=C(N[C@H]1CC[C@H](CCN2CCN(c3nccc4c3OCC4)CC2)CC1)c1cnc(N2CCOCC2)cn1 [Example 78] = 200.5
CO[C@H]1CC[C@H](CC(=O)N[C@H]2CC[C@H](CCN3CCN(c4nccc5c4OCC5)CC3)CC2)CC1 [Example 92] = 188.5
O=C(N[C@H]1CC[C@H](CCN2CCN(c3nccc4ccoc34)CC2)CC1)C1CCOCC1 [Example 11] = 211
CN1CCN(c2ccc(C(=O)N[C@H]3CC[C@H](CCN4CCN(c5nccc6c5OCC6)CC4)CC3)cc2)CC1 [Example 68] = 235.5
O=C(CC1COCCO1)N[C@H]1CC[C@H](CCN2CCN(c3nccc4c3OCC4)CC2)CC1 (some centres unmarked) [Example 19] = 194.5

---

metric: melting point (°C)

Would you please look over these solved cases?
CC(C)(O)C(=O)N[C@H]1CC[C@H](CCN2CCN(c3nccc4c3OCC4)CC2)CC1 = 241
O=C(CO)N[C@H]1CC[C@H](CCN2CCN(c3nccc4c3OCC4)CC2)CC1 = 246
Cc1cc(CC(=O)N[C@H]2CC[C@H](CCN3CCN(c4nccc5c4OCC5)CC3)CC2)on1 = 222.5
O=C(N[C@H]1CC[C@H](CCN2CCN(c3nccc4c3OCC4)CC2)CC1)c1ccc(-c2cccnc2)cc1 = 235
COC(CCC(=O)N[C@H]1CC[C@H](CCN2CCN(c3nccc4c3OCC4)CC2)CC1)OC = 204.5

a. COC(C)CC(=O)N[C@H]1CC[C@H](CCN2CCN(c3nccc4c3OCC4)CC2)CC1 (mixture of isomers)
b. O=C(N[C@H]1CC[C@H](CCN2CCN(c3nccc4c3OCC4)CC2)CC1)c1ccc(N2CCOCC2)cc1
Input line: Could you point out whether the larger melting point belongs to a or to b ? Refer to your chosen entry by its label in the reply.
Output line: b

I. O=CN[C@H]1CC[C@H](CCN2CCN(c3nccc4c3OCC4)CC2)CC1
II. O=C(N[C@H]1CC[C@H](CCN2CCN(c3nccc4c3OCC4)CC2)CC1)c1ccc(Cl)cc1
Input line: Would you kindly point out which of I and II has the smaller melting point figure? # reply format: chosen label
Output line: I

---

metric: melting point (°C)

For orientation, consider the following solved cases.
Cc1nc(-c2cccc(C(=O)N[C@H]3CC[C@H](CCN4CCN(c5nccc6c5OCC6)CC4)CC3)c2)no1 [Example 64] = 227.5
O=C(N[C@H]1CC[C@H](CCN2CCN(c3nccc4c3OCC4)CC2)CC1)C1CCOCC1 [Example 7] = 236.5
O=C(N[C@H]1CC[C@H](CCN2CCN(c3nccc4c3OCC4)CC2)CC1)c1ccc(-n2cccn2)cc1 [Example 65] = 225.5
CN(C)C(=O)CCC(=O)N[C@H]1CC[C@H](CCN2CCN(c3nccc4c3OCC4)CC2)CC1 [Example 41] = 177.5
CO[C@H](C)C(=O)N[C@H]1CC[C@H](CCN2CCN(c3nccc4c3OCC4)CC2)CC1 [Example 100] = 170.5

a. C/C=C/CC(=O)N[C@H]1CC[C@H](CCN2CCN(c3nccc4c3OCC4)CC2)CC1 [Example 87]
b. O=C(N[C@H]1CC[C@H](CCN2CCN(c3nccc4c3OCC4)CC2)CC1)c1ccc(N2CCS(=O)(=O)CC2)cc1 [Example 74]
Input line: Hey, which is lower on measured melting point, a or b ? I would appreciate it if you answered with the label of your choice.
Output line: a

a. O=C(N[C@H]1CC[C@H](CCN2CCN(c3nccc4c3OCC4)CC2)CC1)C1(O)CCC1 [Example 79]
b. O=C(CC1(O)CCC1)N[C@H]1CC[C@H](CCN2CCN(c3nccc4c3OCC4)CC2)CC1 [Example 102]
Input line: Look at a and b . Which one has the lower recorded melting point number? Returns: label corresponding to the selected item.
Output line: b
(b: 155 °C, a: 250 °C)

---

- experimental.system: human D2 receptor (Homo sapiens, UniProt P14416)
- Construct: membrane preparation
- Sequence (P14416 whole entry): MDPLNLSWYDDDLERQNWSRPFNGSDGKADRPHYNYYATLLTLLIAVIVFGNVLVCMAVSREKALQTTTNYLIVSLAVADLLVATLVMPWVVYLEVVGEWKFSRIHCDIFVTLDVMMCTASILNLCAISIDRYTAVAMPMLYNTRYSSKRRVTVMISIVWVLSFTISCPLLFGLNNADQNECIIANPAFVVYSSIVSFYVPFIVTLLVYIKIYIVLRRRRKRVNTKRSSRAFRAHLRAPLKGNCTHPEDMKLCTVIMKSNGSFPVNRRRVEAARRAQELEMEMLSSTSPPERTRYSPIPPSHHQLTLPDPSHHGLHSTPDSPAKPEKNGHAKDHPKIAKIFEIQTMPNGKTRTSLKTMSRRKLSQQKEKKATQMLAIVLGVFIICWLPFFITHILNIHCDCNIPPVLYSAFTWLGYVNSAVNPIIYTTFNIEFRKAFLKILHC
- measurement.notes: Radioligand binding to cloned human D2 receptor expressed in HEK-293 EBNA cells ([3H]-spiperone)
- test.settings: HEK293 EBNA cell membranes, approximately 0.7 nM [3H]-spiperone, 1 h at RT
pKi: −log10 of the molar value.
metric: pKi

a. C[C@]1(O)CC[C@@H](C(=O)N[C@H]2CC[C@H](CCN3CCN(c4nccc5c4OCC5)CC3)CC2)CC1 [Example 93]
b. O=C(N[C@H]1CC[C@H](CCN2CCN(c3nccc4c3OCC4)CC2)CC1)c1ccc(Cl)cc1Cl [Example 67]
c. O=C(N[C@H]1CC[C@H](CCN2CCN(c3nccc4c3OCC4)CC2)CC1)C1CC1 [Example 36]
d. CS(=O)(=O)N[C@H]1CC[C@H](CCN2CCN(c3nccc4c3OCC4)CC2)CC1 [Example 26]
e. O=C(N[C@H]1CC[C@H](CCN2CCN(c3nccc4c3OCC4)CC2)CC1)c1ccc(N2CCCCC2)cc1 [Example 57]
Input line: List the 5 entries from lowest pKi to highest pKi value. Answer format: the labels, in the requested order.
Output line: b, e, a, d, c

P. Cc1ccc(C(=O)N[C@H]2CC[C@H](CCN3CCN(c4nccc5c4OCC5)CC3)CC2)cn1 [Example 69]
Q. O=C(N[C@H]1CC[C@H](CCN2CCN(c3nccc4c3OCC4)CC2)CC1)c1ccc2c(c1)OCO2 [Example 60]
Input line: Between P and Q , which one shows the smaller pKi number? Select an item and report its label.
Output line: P
(P: 6.22, Q: 6.46)

A. CO[C@H](C)C(=O)N[C@H]1CC[C@H](CCN2CCN(c3nccc4c3OCC4)CC2)CC1 [Example 100]
B. COC(CC(=O)N[C@H]1CC[C@H](CCN2CCN(c3nccc4c3OCC4)CC2)CC1)OC [Example 62]
C. N#CCC(=O)N[C@H]1CC[C@H](CCN2CCN(c3nccc4c3OCC4)CC2)CC1 [Example 31]
D. O=C(N[C@H]1CC[C@H](CCN2CCN(c3nccc4c3OCC4)CC2)CC1)c1ccc(N2CCOCC2)cc1 [Example 38]
E. O=C(CO)N[C@H]1CC[C@H](CCN2CCN(c3nccc4c3OCC4)CC2)CC1 [Example 28]
Input line: Arrange the 5 entries by pKi so the values rise. Write the labels out in the order the request specifies.
Output line: D, B, A, E, C
(D: 5.64, B: 5.89, A: 6.15, E: 6.37, C: 6.86)

A. O=C(CC1CCC1)N[C@H]1CC[C@H](CCN2CCN(c3nccc4c3OCC4)CC2)CC1 [Example 25]
B. CC[C@H](O)CC(=O)N[C@H]1CC[C@H](CCN2CCN(c3nccc4c3OCC4)CC2)CC1 [Example 48]
Input line: Record comparison, field pKi: mark the lower of A and B . Record your answer as the label of the chosen record.
Output line: B
